Tested on: HOP-62
Assay: Anticancer activity against human HOP62 cells assessed cell growth at 10 uM after 48 hrs by sulforhodamine B assay relative to control
Type: functional
Items are presented alongside their recorded Activity.
Quick note: give the figure in %, leave out the unit.

Study these solved cases before continuing.
> print(dat)
                            structure.string  measured
 1    CCCCCCCCCCCC[n+]1ccn(C)c1.F[B-](F)(F)F      28.7
 2       CCCCCCCCCCCCCCCC[n+]1ccn(C)c1.[Cl-]    -82.71
 3     CCCCCCCCCCCCCCCCCC[n+]1ccn(C)c1.[Cl-]    -58.64
 4  CCCCCCCCOS(=O)(=O)[O-].CCCCCCCC[n+]1ccn(C)c1     90.54
 5               CCCCCCCC[n+]1ccn(C)c1.[Cl-]     90.78
 6  COCC[n+]1ccn(C)c1.O=S(=O)([N-]S(=O)(=O)C(F)(F)F)C(F)(F)F     93.93
 7  Cn1cc[n+](CCO)c1.O=S(=O)([N-]S(=O)(=O)C(F)(F)F)C(F)(F)F     90.22
 8  CCCCCCCC[n+]1ccn(C)c1.F[P-](F)(F)(F)(F)F     79.02
 9        CCCCCCCC[n+]1ccn(C)c1.F[B-](F)(F)F     91.23
10  Cn1cc[n+](Cc2ccccc2)c1.F[P-](F)(F)(F)(F)F     27.45

Here is another compound to look at.
Ask: Quick one: Activity of CCCCCCCCCCCCCCCCCC[n+]1ccn(C)c1.F[P-](F)(F)(F)(F)F ?
Reply: -56

Recorded values, source ChEMBL document CHEMBL1153245.
